- MEASURED_ON: T1, CEACAM1 antigen (Sino Biological, Inc.) (UniProt P13688 35-428)
- T1 construct: Bought antigen, coated on the ELISA plate; construct not described; also called CEACAM1 (CD66a) antigen; CD66a
- T1 sequence (looked up): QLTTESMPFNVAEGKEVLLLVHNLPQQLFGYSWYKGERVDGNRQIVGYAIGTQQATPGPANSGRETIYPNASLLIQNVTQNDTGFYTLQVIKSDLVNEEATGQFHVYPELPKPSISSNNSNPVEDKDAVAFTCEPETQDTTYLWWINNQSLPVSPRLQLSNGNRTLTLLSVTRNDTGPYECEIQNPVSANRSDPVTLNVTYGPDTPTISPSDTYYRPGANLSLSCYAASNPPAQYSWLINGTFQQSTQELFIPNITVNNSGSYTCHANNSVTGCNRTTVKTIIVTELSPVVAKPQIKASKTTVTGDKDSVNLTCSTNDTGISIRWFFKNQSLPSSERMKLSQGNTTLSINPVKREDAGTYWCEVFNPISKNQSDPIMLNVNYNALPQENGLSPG
- PROTOCOL_SUMMARY: ELISA, CEACAM1 coated 100 ng/well, antibody at 123.46 ng/ml
PROPERTY_LABEL: OD 450 nm (OD 450 nm)
Give just the numeric value; OD 450 nm need not be written.

Recorded OD 450 nm of recombinant humanized anti-CD66c antibody Protein ID 2938 (Vk5 + VH7) (antibody, human IgG1, V domains shown, also called hu 2938) VH: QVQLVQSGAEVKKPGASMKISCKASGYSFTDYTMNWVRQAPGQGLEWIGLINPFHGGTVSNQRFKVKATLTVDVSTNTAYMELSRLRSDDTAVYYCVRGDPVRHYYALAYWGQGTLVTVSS VL: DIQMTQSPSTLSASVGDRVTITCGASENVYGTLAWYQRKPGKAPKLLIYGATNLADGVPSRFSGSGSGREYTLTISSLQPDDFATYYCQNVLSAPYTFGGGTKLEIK , please.
0.1
